assay.system: T1, recombinant CD28 antigen (extracellular domain, expressed in mammalian cells) (UniProt P10747 19-152, limits assumed)
T1 construct: extracellular domain; Immobilized on a CM5 chip by amine coupling; also called T-cell-specific surface glycoprotein CD28
test.method.notes: SPR (Biacore), CD28 ECD on CM5 chip, Fab as analyte
attribute.measured: affinity [%] (by KD, chCD28 Fab set to 100%)
Write the answer as a number in %, unit excluded.

Example cases with answers are listed next.
For record huCD28_v3 Fab (humanized) (Fab, V domains shown, not shown: small tags and cut ends, Humanized 15E8 Fab expressed in E. coli periplasm) VH: QVQLQESGPGLVKPSETLSLTCTVSGFSLTSYGVHWIRQPPGKGLEWLGVIWAGGSTNYNSSLKSRVTISKDTSKNQVFLKLSSVTADDTAVYYCARDKRAPGKLYYGYPDYWGQGTTLTVSS VL: DIVMTQSPDSLAVSLGERATINCRASESVEYYVTSLMQWYQQKPGQPPKLLIYAASNVESGVPARFSGSGSGTDFTLTISPLQAEDVAVYYCQQTRKVPSTFGGGTKLEIKR the listed affinity [%] (by KD, chCD28 Fab set to 100%) is 62

Per the records, this binder ( chCD28 Fab (chimeric) (Fab, V domains shown, Fab expressed in E. coli periplasm; not shown: Fabs were purified by IMAC) VH: QVQLKESGPGLVAPSQSLSITCTVSGFSLTSYGVHWVRQPPGKGLEWLGVIWAGGSTNYNSALMSRLSISKDNSKSQVFLKMNSLQTDDTAMYYCARDKRAPGKLYYGYPDYWGQGTTLTVSS VL: DIVLTQSPASLAVSLGQRATISCRASESVEYYVTSLMQWYQQKPGQPPKLLIYAASNVESGVPARFSGSGSGTDFSLNIHPVEEDDIAMYFCQQTRKVPSTFGGGTKLEIKR ) has affinity [%] (by KD, chCD28 Fab set to 100%) equal to 100

Short answer for huCD28_v2 Fab (humanized) (Fab, V domains shown, not shown: small tags and cut ends, Humanized 15E8 Fab expressed in E. coli periplasm) VH: QVQLQESGPGLVKPSETLSLTCTVSGFSLTSYGVHWVRQPPGKGLEWIGVIWAGGSTNYNPSLKSRVTISKDTSKNQFSLKLSSVTAADTAVYYCARDKRAPGKLYYGYPDYWGQGTTLTVSS VL: DIVMTQSPDSLAVSLGERATINCKSSESVEYYVTSLLQWYQQKPGQPPKLLIYAASNRESGVPDRFSGSGSGTDFTLTISSLQAEDVAVYYCQQTRKVPSTFGGGTKLEIKR : affinity [%] (by KD, chCD28 Fab set to 100%) was 35

get_value(item= huCD28_v4 Fab (humanized) (Fab, V domains shown, not shown: small tags and cut ends, Humanized 15E8 Fab expressed in E. coli periplasm) VH: QVQLQESGPGLVKPSETLSLTCTVSGFSLTSYGVHWIRQPPGKGLEWLGVIWAGGSTNYNSSLKSRVTISKDTSKNQVSLKLSSVTAADTAVYYCARDKRAPGKLYYGYPDYWGQGTTLTVSS VL: DIVMTQSPDSLAVSLGERATINCRASESVEYYVTSLMQWYQQKPGQPPKLLIYAASNVESGVPARFSGSGSGTDFTLTISPLQAEDVAVYYCQQTRKVPSTFGGGTKLEIKR , readout=affinity [%] (by KD, chCD28 Fab set to 100%)) returns 60

Others:
Input huCD28_v1 Fab (humanized) (Fab, V domains shown, not shown: small tags and cut ends, Humanized 15E8 Fab expressed in E. coli periplasm) VH: QVQLQESGPGLVKPSETLSLTCTVSGFSLTSYGVHWVRQPPGKGLEWLGVIWAGGSTNYNSALMSRLTISKDTSKNQVSLKLSSVTAADTAVYYCARDKRAPGKLYYGYPDYWGQGTTLTVSS VL: DIVMTQSPDSLAVSLGERATINCRASESVEYYVTSLMQWYQQKPGQPPKLLIYAASNVESGVPDRFSGSGSGTDFTLTISSLQAEDVAVYYCQQTRKVPSTFGGGTKLEIKR . Output affinity [%] (by KD, chCD28 Fab set to 100%): 76

Entry source: patent US20180112000A1
